assay: Pharmacokinetic study in mice; format: in vivo; settings: female, BALB/c (BALB/cAnN CrlCrlj), mouse, plasma, intravenous, 1 mg/kg
READOUT_KIND: clearance (mL/min/kg)

INSERT INTO measurements (compound_structure_string, readout_kind, result_units, test_value) VALUES
  ('O=C1N[C@]2(CCc3cc(-c4cnn(C5CN(C6COC6)C5)c4)ccc32)C(=O)N1CC(=O)N(Cc1ccc(F)cc1)C1(C(F)(F)F)CC(F)(F)C1', 'clearance', 'mL/min/kg', 17.6),
  ('O=C1N[C@]2(C[C@@H](F)c3cc(-c4cnn(C5CCN(C6COC6)CC5)c4)ccc32)C(=O)N1CC(=O)N(Cc1ccc(F)cn1)C1(C(F)(F)F)COC1', 'clearance', 'mL/min/kg', 9.8),
  ('CN1CC(N(Cc2ccc(F)cn2)C(=O)CN2C(=O)N[C@]3(C[C@@H](F)c4cc(-c5cnn(C)c5)ccc43)C2=O)(C(F)(F)F)C1', 'clearance', 'mL/min/kg', 31.1),
  ('O=C1N[C@]2(C[C@@H](F)c3cc(-c4cnn(C5CN(C6COC6)C5)c4)ccc32)C(=O)N1CC(=O)N(Cc1ccc(F)cc1)C1(C(F)(F)F)COC1', 'clearance', 'mL/min/kg', 20.6),
  ('O=C1N[C@]2(CCc3cc(-c4cnn(C5CN(C6COC6)C5)c4)ccc32)C(=O)N1CC(=O)N(Cc1ccc(F)cc1)C1(C(F)(F)F)COC1', 'clearance', 'mL/min/kg', 28.6),
  ('O=C1N[C@]2(C[C@@H](F)c3cc(-c4cnn(C5CN(C6COC6)C5)c4)ccc32)C(=O)N1CC(=O)N(Cc1ccc(F)cc1)C1(C(F)(F)F)CC(F)(F)C1', 'clearance', 'mL/min/kg', 6.8);

(I) O=C1N[C@]2(C[C@@H](F)c3cc(-c4cnn(C5CN(C6COC6)C5)c4)ccc32)C(=O)N1CC(=O)N(Cc1ccc(F)cn1)C1(C(F)(F)F)CC(F)(F)C1
(II) O=C1N[C@]2(C[C@@H](F)c3cc(-c4cnn(C5CN(C6COC6)C5)c4)ccc32)C(=O)N1CC(=O)N(Cc1ccc(F)cn1)C1(C(F)(F)F)COC1
[ask] Lab note: record which item had the higher clearance, I or II . Lab note: record the label of whichever item you select.
[reply] II

====

assay: Membrane permeability test (PAMPA); assay type: in vitro ADME; settings: pH 5.0, 37° C., read-out: pH 5.0 Pe
READOUT_KIND: Papp at 4 h (×10⁻⁶ cm/s)

INSERT INTO measurements (compound_structure_string, result_units, test_value) VALUES
  ('CCn1cc(-c2ccc3c(c2)[C@H](F)C[C@]32NC(=O)N(CC(=O)N(Cc3ccc(F)cn3)C3(C(F)(F)F)CN(C)C3)C2=O)cn1', '×10⁻⁶ cm/s', 15.4),
  ('CN1CC(N(Cc2ccc(F)cc2)C(=O)CN2C(=O)N[C@]3(C[C@@H](F)c4cc(-c5cnn(C)c5)c(F)cc43)C2=O)(C(F)(F)F)C1', '×10⁻⁶ cm/s', 23.9),
  ('CN1CC(N(Cc2ccc(F)cn2)C(=O)CN2C(=O)N[C@]3(C[C@@H](F)c4cc(-c5cnn(C6CCC6)c5)ccc43)C2=O)(C(F)(F)F)C1', '×10⁻⁶ cm/s', 24.4),
  ('CN1CC(N(Cc2ccc(F)cc2)C(=O)CN2C(=O)N[C@]3(C[C@@H](F)c4cc(-c5cnn(C)c5F)ccc43)C2=O)(C(F)(F)F)C1', '×10⁻⁶ cm/s', 30);

(I) CN1CC(N(Cc2ccc(F)cc2)C(=O)CN2C(=O)N[C@]3(C[C@@H](F)c4cc(-c5cnn(C(C)(C)C#N)c5)ccc43)C2=O)(C(F)(F)F)C1
(II) CN1CC(N(Cc2ccc(F)cn2)C(=O)CN2C(=O)N[C@]3(CCc4cc(-c5cnn(C)c5)ccc43)C2=O)(C(F)(F)F)C1
[ask] Which entry has a larger number for Papp at 4 h, I or II ? Record your answer as the label of the chosen record.
[reply] I
(I: 24.1 ×10⁻⁶ cm/s, II: 6.2 ×10⁻⁶ cm/s)

====

system: G-401 cells; test: Cell proliferation inhibition experiment using G-401 cells; type: cell-based; details: Homo sapiens, 72 h, cultured for 3 days, CellTiter-Glo
pIC50 for assorted compounds
Interpret pIC50 as the negative base-10 log of the concentration measured in mol/L.

Example results:
INSERT INTO results (compound, test_value) VALUES
  ('O=C1N[C@]2(C[C@@H](F)c3cc(-c4cnn(C5CN(C6COC6)C5)c4)ccc32)C(=O)N1CC(=O)N(Cc1ccc(F)cn1)C1(C(F)(F)F)CC(F)(F)C1 [Example 9]', 7.42),
  ('CN1CC(N(Cc2ccc(F)cc2)C(=O)CN2C(=O)N[C@]3(C[C@@H](F)c4cc(-c5cnn(C)c5)c(F)cc43)C2=O)(C(F)(F)F)C1 [Example 29]', 7.77),
  ('CN1CC(N(Cc2ccc(F)cn2)C(=O)CN2C(=O)N[C@]3(C[C@@H](F)c4cc(-c5cnn(C6COC6)c5)ccc43)C2=O)(C(F)(F)F)C1 [Example 24]', 7.44);

[ask] Reported pIC50, compound CN1CCn2ncc(-c3ccc4c(c3)[C@H](F)C[C@]43NC(=O)N(CC(=O)N(Cc4ccc(F)cc4)C4(C(F)(F)F)COC4)C3=O)c2C1 [Example 14] : ____
[reply] 6.17

[ask] // pIC50 lookup, key: CN1CC(N(Cc2ccc(F)cc2)C(=O)CN2C(=O)N[C@]3(CCc4cc(-c5cn(C)nc5F)ccc43)C2=O)(C(F)(F)F)C1 [Example 18]
[reply] 6.53

[ask] # input compound: CN1CC(N(Cc2ccc(F)cn2)C(=O)CN2C(=O)N[C@]3(C[C@@H](F)c4cc(-c5cnn(C(C)(C)CO)c5)ccc43)C2=O)(C(F)(F)F)C1 [Example 27] ; wanted: its pIC50
[reply] 7.66

[ask] I have this compound here, CN1CC(N(Cc2ccc(F)cc2)C(=O)CN2C(=O)N[C@]3(C[C@@H](F)c4cc(-c5cnn(C)c5)ccc43)C2=O)(C(F)(F)F)C1 [Example 10] , and I need its recorded pIC50.
[reply] 8.00

[ask] Need pIC50 of CN1CC(N(Cc2ccc(F)cc2)C(=O)CN2C(=O)N[C@]3(CCc4cc(-c5cnn(C)c5)ccc43)C2=O)(C(F)(F)F)C1 [Example 12] , thanks.
[reply] 7.09

[ask] # lookup: pIC50 of CC(C)n1cc(-c2ccc3c(c2)[C@H](F)C[C@]32NC(=O)N(CC(=O)N(Cc3ccc(F)cc3)C3(C(F)(F)F)CN(C)C3)C2=O)cn1 [Example 31]
[reply] 9.00

[ask] Reported pIC50, compound CN1CC(N(Cc2ccc(F)cc2)C(=O)CN2C(=O)N[C@]3(C[C@@H](F)c4cc(-c5cnn(C(C)(C)C#N)c5)ccc43)C2=O)(C(F)(F)F)C1 [Example 11] : ____
[reply] 8.00

[ask] Sample CN1CC(N(Cc2ccc(F)cn2)C(=O)CN2C(=O)N[C@]3(C[C@@H](F)c4cc(-c5cnn(C(C)(C)C#N)c5)ccc43)C2=O)(C(F)(F)F)C1 [Example 26] — what was its pIC50?
[reply] 7.85

[ask] May I ask what pIC50 has been recorded for CN1CC(N(Cc2ccc(F)cn2)C(=O)CN2C(=O)N[C@]3(C[C@@H](F)c4cc(-c5cnn(CC6COC6)c5)ccc43)C2=O)(C(F)(F)F)C1 [Example 25] ?
[reply] 7.23

====

assay: Solubility test; format: physicochemical; details: aqueous buffer, thermodynamic from solid; 10 mmol/L citrate buffer (pH 3.0), 5° C., overnight; read-out: Solubility in pH 3.0 buffer
READOUT_KIND: solubility (µg/mL)

INSERT INTO measurements (molecule, test_value) VALUES
  ('O=C1N[C@]2(C[C@@H](F)c3cc(-c4cnn(C5CCN(C6COC6)CC5)c4)ccc32)C(=O)N1CC(=O)N(Cc1ccc(F)cn1)C1(C(F)(F)F)COC1', 8600),
  ('CN1CC(N(Cc2ccc(F)cn2)C(=O)CN2C(=O)N[C@]3(C[C@@H](F)c4cc(-c5cnn(C)c5)ccc43)C2=O)(C(F)(F)F)C1', 8600);

(I) CC(C)n1cc(-c2ccc3c(c2)[C@H](F)C[C@]32NC(=O)N(CC(=O)N(Cc3ccc(F)cn3)C3(C(F)(F)F)CN(C)C3)C2=O)cn1
(II) CNC(=O)Cn1cc(-c2ccc3c(c2)[C@H](F)C[C@]32NC(=O)N(CC(=O)N(Cc3ccc(F)cc3)[C@@H](C)C(F)(F)F)C2=O)cn1 [Comparative Example 1, reference compound]
(III) CCn1cc(-c2ccc3c(c2)[C@H](F)C[C@]32NC(=O)N(CC(=O)N(Cc3ccc(F)cc3)C3(C(F)(F)F)CN(C)C3)C2=O)cn1
[ask] Given 3 molecules, produce a descending ranking by solubility. Give the labels in the order requested.
[reply] I, III, II
(I: 8600 µg/mL, III: 1700 µg/mL, II: 5 µg/mL)
